test system: Epstein-Barr virus early antigen (EBV-EA) of Raji cells induced by tumor promoter (TPA); test: Inhibition of EBV-EA activation induced by TPA in Raji cells; type: cell-based; conditions: x 10 mol ratio/TPA; TPA 32 pmol; Raji cells, 48 h
Catalogue of EBV-EA induction, percentage relative to the positive control value (100%) readings, one per entry.
Number only, in %; omit the unit.

Completed entries (count: 5):
C/C1=C\C=C(\C(C)(O)CO)CC(=O)/C(C)=C/CCC2(C)OC2CC1 (centres unmarked) | 94.0
C/C(CO)=C1\CC/C(C)=C/CCC2(C)OC2CC/C(C)=C/C1O (centres unmarked) | 94.1
CC1=CC=C([C@@](C)(O)CO)C[C@H](O)C(C)=CCCC2(C)OC2CC1 (some centres unmarked) | 93.8
CC1=C2CC/C(C=O)=C/CC[C@]3(C)O[C@H]3CC/C(C)=C/[C@@H]2OC1=O | 96.0
CC1=CC=C([C@@](C)(O)CO)C[C@@H](O)C(C)=CCCC2(C)OC2CC1 (some centres unmarked) | 92.6

**Q:** Report EBV-EA induction, percentage relative to the positive control value (100%) for C/C1=C\C=C(\C(C)C)[C@@H](O)C/C(C)=C/CC/C(C)=C/CC1 [Sarcophytol-A, sarcophytol A, reference compound] please.
**A:** 97.3

**Q:** Report EBV-EA induction, percentage relative to the positive control value (100%) for C/C1=C\C=C(\C(C)(O)CO)CC/C(C=O)=C/CCC2(C)OC2CC1 (centres unmarked) please.
**A:** 90.6

**Q:** Report EBV-EA induction, percentage relative to the positive control value (100%) for CC1=C2CC/C(C)=C/CC[C@]3(C)O[C@H]3CC/C(C)=C/[C@@H]2OC1=O [Compound 3, Sarcophine, reference compound] please.
**A:** 100
